- systemName: carbonyl reductase 1 (CBR1) (Homo sapiens)
- Sequence (P16152 1-277): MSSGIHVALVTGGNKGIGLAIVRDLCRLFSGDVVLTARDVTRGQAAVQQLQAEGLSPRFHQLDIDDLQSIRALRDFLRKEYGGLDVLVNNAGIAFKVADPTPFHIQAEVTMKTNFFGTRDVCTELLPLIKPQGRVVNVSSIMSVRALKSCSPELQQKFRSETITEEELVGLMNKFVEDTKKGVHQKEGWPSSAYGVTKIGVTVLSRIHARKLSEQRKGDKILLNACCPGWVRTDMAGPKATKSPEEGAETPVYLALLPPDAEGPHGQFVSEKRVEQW
- assayDetails: CBR1 inhibition: menadione reduction, NADPH absorbance at 340 nm
- Format: biochemical
- Parameters: 6-His (N); made in house; host or cells: E. coli
- measurementParameters: Table 1; read-out: IC50 anti-hCBR1
The reader will find reported IC50 values listed item by item below.

compound	IC50
CC(C)(C)n1nc(Cc2ccccc2O)c2c(N)ncnc21 [RB04]	> 20 µM
CC(C)n1cc(-c2cccc(O)c2)c2c(N(Cc3ccccc3)Cc3ccccc3)ncnc21 [RB09]	> 20 µM
CC(C)(C)n1nc(Cc2ccc(O)cc2)c2c(N)ncnc21 [RB03]	> 20 µM
CC(C)(C)n1nc(Cc2cccc(O)c2)c2c(N)ncnc21 [RB01]	> 20 µM
CC(C)(C)n1nc(-c2ccc(F)c(O)c2)c2c(N)ncnc21 [MS01]	1 µM
